- ASSAY EXPLANATION: Plasma pharmacokinetics of BIBF 1120 (HPLC-MS/MS)
- Format: in vivo, human
- CONDITION INFO: male, human, plasma, po, 250 mg, oral 250 mg BID; day 2 of treatment cycle 1; read-out: t1/2, gMean (gCV%) (converted)
MEASURED PARAMETER: half-life (h)
Give just the numeric value; h need not be written.

input: What measured half-life goes with COC(=O)c1ccc2c(c1)NC(=O)/C2=C(\Nc1ccc(N(C)C(=O)CN2CCN(C)CC2)cc1)c1ccccc1 [BIBF 1120] ?
output: 7.03
